Recorded hERG current change (%, negative = inhibition) at 1uM for the following compounds
molecular target: human ether-à-go-go-related gene (hERG) potassium channel (human, UniProt Q12809); test: primary screen, population patch clamp on CHO cells stably expressing hERG; higher = less effect of the substance
Sequence (Q12809 whole entry, looked up): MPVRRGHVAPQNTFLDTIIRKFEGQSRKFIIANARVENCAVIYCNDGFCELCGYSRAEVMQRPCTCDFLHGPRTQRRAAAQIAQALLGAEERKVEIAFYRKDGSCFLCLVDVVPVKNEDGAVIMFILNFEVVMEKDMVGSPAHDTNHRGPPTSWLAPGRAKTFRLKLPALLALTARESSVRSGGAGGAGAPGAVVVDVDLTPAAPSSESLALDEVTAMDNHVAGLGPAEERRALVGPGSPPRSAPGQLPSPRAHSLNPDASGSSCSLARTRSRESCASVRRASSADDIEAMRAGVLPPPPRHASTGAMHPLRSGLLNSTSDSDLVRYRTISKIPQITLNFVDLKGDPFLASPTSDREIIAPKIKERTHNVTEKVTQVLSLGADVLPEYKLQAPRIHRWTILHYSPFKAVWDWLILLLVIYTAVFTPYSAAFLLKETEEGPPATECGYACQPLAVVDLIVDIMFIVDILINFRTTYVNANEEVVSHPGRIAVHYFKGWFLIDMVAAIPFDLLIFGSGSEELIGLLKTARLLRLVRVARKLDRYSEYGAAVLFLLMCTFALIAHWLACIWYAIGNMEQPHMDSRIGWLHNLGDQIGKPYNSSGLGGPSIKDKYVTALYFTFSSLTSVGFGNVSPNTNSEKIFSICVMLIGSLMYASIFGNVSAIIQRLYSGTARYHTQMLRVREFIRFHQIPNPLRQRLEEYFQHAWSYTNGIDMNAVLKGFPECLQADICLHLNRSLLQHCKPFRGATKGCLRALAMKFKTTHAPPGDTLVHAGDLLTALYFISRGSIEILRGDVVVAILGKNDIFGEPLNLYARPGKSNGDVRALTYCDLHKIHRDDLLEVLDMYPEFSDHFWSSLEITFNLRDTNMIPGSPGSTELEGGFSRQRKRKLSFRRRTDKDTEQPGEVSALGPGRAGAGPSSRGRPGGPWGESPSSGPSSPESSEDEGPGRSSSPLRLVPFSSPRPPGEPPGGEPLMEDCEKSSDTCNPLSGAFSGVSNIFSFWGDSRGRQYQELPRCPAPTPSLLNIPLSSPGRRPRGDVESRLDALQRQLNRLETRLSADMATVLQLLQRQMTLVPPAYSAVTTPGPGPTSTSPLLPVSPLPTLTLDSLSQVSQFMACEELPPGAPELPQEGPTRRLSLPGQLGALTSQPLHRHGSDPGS
The whole screen tested about 310,000 compounds, of which about 2,200 (0.71%) showed an effect of 50% or more. The effect is printed as a negative number. The full list was thinned out, with strong results kept by preference.
endpoint.name: hERG current change (%, negative = inhibition) at 1uM

compound: CCCN1CCC(=O)N([C@H](CSc2ccc(OC)cc2)c2ccccc2)CC1
value: -81.7%
//
compound: CN1CCC(=O)N([C@H](CSc2ccc(Br)cc2)c2ccccc2)CC1
value: -89.8%
//
compound: O=C(c1ccc2c(c1)N(Cc1ccccc1)C(=O)CS2)N1CCOCC1
value: 1.45%
//
compound: Cc1cc(C)nc(OC(C(=O)O)C(OCCC(C)C)(c2ccccc2)c2ccccc2)n1 (centres unmarked)
value: 10.8%
//
compound: Cc1ccc(S(=O)(=O)CC(=O)c2ccc(C(C)(C)C)cc2)cc1
value: 2.43%
//
compound: CC(=O)Nc1ccc(SC[C@H](c2ccccc2)N2CCN(CCc3ccccc3)CCC2=O)cc1
value: -56%
//
compound: Cc1ccsc1C(=O)C1CCCN(Cc2cccn2-c2ccc(Cl)cn2)C1 (centres unmarked)
value: -84.3%
//
compound: CCCN1CCC(=O)N([C@H](CSc2ccc(OC)cc2)Cc2ccccc2)CC1
value: -36.3%
//
compound: COc1ccc(CCNC(=O)C2(C)CCC(=O)N2Cc2ccc(F)cc2Cl)cc1OC (centres unmarked)
value: 16.2%
//
compound: Cc1ccsc1C(=O)C1CCCN(Cc2cccn2-c2ccccn2)C1 (centres unmarked)
value: -81.7%
//
compound: C=CCn1c(COc2ccc(Cl)cc2)nnc1SCC(=O)c1c(N)n(C)c(=O)n(C)c1=O
value: 10.5%
//
compound: CCCN1CCC(=O)N([C@H](CSc2ccc(C)cc2)c2ccccc2)CC1
value: -76.3%
//
compound: COc1ccc(CCNCc2cc3ccc(C)cc3[nH]c2=O)cc1OC
value: -53.5%
//
compound: COc1ccc2cc(C(=O)N3CCCCCC3)sc(=O)c2c1OC
value: 1.33%
//
compound: COC(=O)c1c(NC(=O)CN2C(=O)C(=O)N(CC(C)C)C2=O)sc(C)c1C
value: 9.77%
//
compound: CCCCNC(=O)CCCN1C(=O)c2cccnc2Sc2ccccc21
value: 14.1%
//
compound: Cc1ccc(SC[C@H](Cc2ccccc2)N2CCN(CCc3ccccc3)CCC2=O)cc1
value: 8.27%
//
compound: CCOC(=O)C1(C)Oc2ccc(S(=O)(=O)CC)cc2NC1=O (centres unmarked)
value: 16.3%
//
compound: Cc1cccc(CCNCc2cc3cccc(C)c3[nH]c2=O)c1
value: -35.7%
//
compound: Cc1ccsc1C(=O)C1CCCN(Cc2cnc(N)nc2)C1 (centres unmarked)
value: 4.23%
